tested on: chicken embryo; experiment: Chicken embryonic assay; type: in vivo; conditions: lower dose (0.05 mM: 45–50 μg/kg; E2 0.01 mM: 9.1 μg/kg), egg injection, day 18
RECORDED ENDPOINT: weights: liver (g)
Express the result in g but write the number alone.

{"columns": ["COMPOUND", "RECORDED ENDPOINT", "MEASURED VALUE"],
 "data": [
  ["O=c1cc(-c2ccc(O)c(O)c2)oc2cc(O)cc(O)c12", "weights: liver", 0.44],
  ["C[C@]12CC[C@@H]3c4ccc(O)cc4CC[C@H]3[C@@H]1CC[C@@H]2O [E2, 17β-estradiol, reference compound]", "weights: liver", 0.54],
  ["O=c1cc(-c2ccc(O)cc2)oc2cc(O)cc(O)c12", "weights: liver", 0.44],
  ["O=c1c(O)c(-c2ccc(O)c(O)c2)oc2cc(O)cc(O)c12", "weights: liver", 0.56]
]}

IN: Lab note: need weights: liver with chicken embryo for entry O=c1c(-c2ccc(O)cc2)coc2cc(O)cc(O)c12 , please look it up.
OUT: 0.46

====

system: MCF-7 cells; experiment: MCF-7 cell proliferation assay; assay type: cell-based, human; conditions: Homo sapiens, MCF7
Overview of recorded pEC50 for various compounds
pEC50 here: minus log base 10 of the concentration, concentration in moles per litre.

Below, 3 compounds whose answers are already recorded.
{"columns": ["COMPOUND", "pEC50"],
 "data": [
  ["O=c1cc(-c2ccc(O)cc2)oc2cc(O)cc(O)c12 [apigenin]", 10.21],
  ["C[C@]12CC[C@@H]3c4ccc(O)cc4CC[C@H]3[C@@H]1CC[C@@H]2O [E2, 17β-estradiol, reference compound]", 11.00],
  ["O=c1c(-c2ccc(O)cc2)coc2cc(O)cc(O)c12 [genistein]", 9.92]
]}

IN: Name the recorded pEC50 for O=c1cc(-c2ccc(O)c(O)c2)oc2cc(O)cc(O)c12 [luteolin] .
OUT: 8.08

====

tested on: chicken embryo; assay: Chicken embryonic assay; format: in vivo; settings: lower dose (0.05 mM: 45–50 μg/kg; E2 0.01 mM: 9.1 μg/kg), egg injection, day 18
Recorded mortality rate for the following molecules
Please respond with the number in % and leave the unit unwritten.

{"columns": ["MOLECULE", "MEASURED VALUE"],
 "data": [
  ["O=c1c(O)c(-c2ccc(O)c(O)c2)oc2cc(O)cc(O)c12 [quercetin]", 25.0],
  ["O=c1cc(-c2ccc(O)c(O)c2)oc2cc(O)cc(O)c12 [luteolin]", 12.5],
  ["O=c1cc(-c2ccc(O)cc2)oc2cc(O)cc(O)c12 [apigenin]", 10.0]
]}

IN: Form field: reported mortality rate of O=c1c(-c2ccc(O)cc2)coc2cc(O)cc(O)c12 [genistein]
OUT: 40.0

IN: Recorded mortality rate of C[C@]12CC[C@@H]3c4ccc(O)cc4CC[C@H]3[C@@H]1CC[C@@H]2O [E2, 17β-estradiol, reference compound] , please.
OUT: 31.8

====

Documented weights: embryo across a set of molecules
tested on: chicken embryo; test: Chicken embryonic assay; type: in vivo; conditions: higher dose (0.5 mM: 450–500 μg/kg; E2 0.1 mM: 91 μg/kg), egg injection, day 18
Use g as the unit, but write only the number.

Some solved entries appear below for comparison.
{"columns": ["MOLECULE", "RECORDED ENDPOINT", "MEASURED VALUE"],
 "data": [
  ["C[C@]12CC[C@@H]3c4ccc(O)cc4CC[C@H]3[C@@H]1CC[C@@H]2O [E2, 17β-estradiol, reference compound]", "weights: embryo", 22.89],
  ["O=c1c(-c2ccc(O)cc2)coc2cc(O)cc(O)c12", "weights: embryo", 23.88],
  ["O=c1cc(-c2ccc(O)c(O)c2)oc2cc(O)cc(O)c12", "weights: embryo", 20.70]
]}

IN: Dear colleague, I am looking for the recorded weights: embryo of the following molecule: O=c1c(O)c(-c2ccc(O)c(O)c2)oc2cc(O)cc(O)c12
OUT: 24.06

IN: Entry under review: O=c1cc(-c2ccc(O)cc2)oc2cc(O)cc(O)c12 . Reported weights: embryo?
OUT: 21.49

====

system: chicken embryo; experiment: Chicken embryonic assay; assay type: in vivo; settings: higher dose (0.5 mM: 450–500 μg/kg; E2 0.1 mM: 91 μg/kg), egg injection, day 18
// values below are reported number of dead chicken embryo
Write the value as a bare number.

Worked examples, 3 compounds total:
{"columns": ["COMPOUND", "MEASURED VALUE"],
 "data": [
  ["O=c1cc(-c2ccc(O)cc2)oc2cc(O)cc(O)c12 [apigenin]", 1],
  ["C[C@]12CC[C@@H]3c4ccc(O)cc4CC[C@H]3[C@@H]1CC[C@@H]2O [E2, 17β-estradiol, reference compound]", 6],
  ["O=c1cc(-c2ccc(O)c(O)c2)oc2cc(O)cc(O)c12 [luteolin]", 7]
]}

IN: Record request: number of dead chicken embryo value, item O=c1c(-c2ccc(O)cc2)coc2cc(O)cc(O)c12 [genistein]
OUT: 5

IN: What value of number of dead chicken embryo has been recorded for this entry: O=c1c(O)c(-c2ccc(O)c(O)c2)oc2cc(O)cc(O)c12 [quercetin]
OUT: 1

====

Measured malformation rate of individual entries
tested on: chicken embryo; test: Chicken embryonic assay; assay type: in vivo; settings: higher dose (0.5 mM: 450–500 μg/kg; E2 0.1 mM: 91 μg/kg), egg injection, day 18
Provide the reading as a plain figure in %.

{"columns": ["COMPOUND", "malformation rate / %"],
 "data": [
  ["O=c1c(-c2ccc(O)cc2)coc2cc(O)cc(O)c12 [genistein]", 0.0]
]}

IN: What does the record list as malformation rate for O=c1cc(-c2ccc(O)c(O)c2)oc2cc(O)cc(O)c12 [luteolin] ?
OUT: 11.11

IN: Field request: malformation rate | item: C[C@]12CC[C@@H]3c4ccc(O)cc4CC[C@H]3[C@@H]1CC[C@@H]2O [E2, 17β-estradiol, reference compound]
OUT: 0.0

IN: Any idea what its malformation rate is? The compound is O=c1cc(-c2ccc(O)cc2)oc2cc(O)cc(O)c12 [apigenin]
OUT: 0.0

====

system: chicken embryo; test: Chicken embryonic assay; format: in vivo; settings: higher dose (0.5 mM: 450–500 μg/kg; E2 0.1 mM: 91 μg/kg), egg injection, day 18
RECORDED ENDPOINT: weights: heart (g)
The reply should contain only the number, in g.

Study these solved cases before continuing.
{"columns": ["COMPOUND", "MEASURED VALUE"],
 "data": [
  ["O=c1cc(-c2ccc(O)cc2)oc2cc(O)cc(O)c12 [apigenin]", 0.17],
  ["O=c1c(-c2ccc(O)cc2)coc2cc(O)cc(O)c12 [genistein]", 0.20],
  ["O=c1cc(-c2ccc(O)c(O)c2)oc2cc(O)cc(O)c12 [luteolin]", 0.18]
]}

IN: What does the data say about its weights: heart? Entry: O=c1c(O)c(-c2ccc(O)c(O)c2)oc2cc(O)cc(O)c12 [quercetin]
OUT: 0.21

IN: # weights: heart lookup, item C[C@]12CC[C@@H]3c4ccc(O)cc4CC[C@H]3[C@@H]1CC[C@@H]2O [E2, 17β-estradiol, reference compound]
OUT: 0.18

====

system: chicken embryo; assay: Chicken embryonic assay; type: in vivo; conditions: lower dose (0.05 mM: 45–50 μg/kg; E2 0.01 mM: 9.1 μg/kg), egg injection, day 18
Catalogue of number of malformation chicken embryo readings, one per entry.
Please give the numeric answer without any surrounding text.

{"columns": ["COMPOUND", "number of malformation chicken embryo"],
 "data": [
  ["O=c1cc(-c2ccc(O)c(O)c2)oc2cc(O)cc(O)c12", 3]
]}

IN: // query number of malformation chicken embryo value for entry O=c1c(-c2ccc(O)cc2)coc2cc(O)cc(O)c12
OUT: 0

IN: // lookup number of malformation chicken embryo for C[C@]12CC[C@@H]3c4ccc(O)cc4CC[C@H]3[C@@H]1CC[C@@H]2O [E2, 17β-estradiol, reference compound]
OUT: 0

IN: Report number of malformation chicken embryo for O=c1cc(-c2ccc(O)cc2)oc2cc(O)cc(O)c12 please.
OUT: 1

IN: Would you mind telling me what number of malformation chicken embryo value was observed for O=c1c(O)c(-c2ccc(O)c(O)c2)oc2cc(O)cc(O)c12 ?
OUT: 0

====

tested on: chicken embryo; experiment: Chicken embryonic assay; assay type: in vivo; conditions: lower dose (0.05 mM: 45–50 μg/kg; E2 0.01 mM: 9.1 μg/kg), egg injection, day 18
RECORDED ENDPOINT: malformation rate (%)
Give your result in % as a bare value.

{"columns": ["MOLECULE", "ASSAY SYSTEM", "MEASURED VALUE"],
 "data": [
  ["O=c1c(-c2ccc(O)cc2)coc2cc(O)cc(O)c12", "chicken embryo", 0.0],
  ["O=c1cc(-c2ccc(O)c(O)c2)oc2cc(O)cc(O)c12", "chicken embryo", 21.43],
  ["O=c1cc(-c2ccc(O)cc2)oc2cc(O)cc(O)c12", "chicken embryo", 11.11],
  ["O=c1c(O)c(-c2ccc(O)c(O)c2)oc2cc(O)cc(O)c12", "chicken embryo", 0.0]
]}

Moving on to the next molecule.
IN: GET /values?readout=malformation rate&item= C[C@]12CC[C@@H]3c4ccc(O)cc4CC[C@H]3[C@@H]1CC[C@@H]2O [E2, 17β-estradiol, reference compound]
OUT: 0.0
